B1: Chromodomain-helicase-DNA-binding protein 4, residues 444 to 496; numbered along this chain, Q14839 (parent)
chain: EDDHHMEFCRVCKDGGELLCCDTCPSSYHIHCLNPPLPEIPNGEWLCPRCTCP

# Variants of: B1
# experiment notes: abundance fitness (aPCA) (normalised: wild type 0, dead -1); higher = more abundant; growth selection in yeast, the domain comes from the species named
# settings: Homo sapiens
Listing of entries alongside the reported abundance fitness.
Reply: number alone, nothing else.

Answered cases to consult:
C52I :: -0.189
E1S :: -0.507
C20G :: 0.083
E1A :: -0.531

Prompt line: Quote abundance fitness reported for S27P please.
Response line: -0.572
